Cited source: PubChem BioAssay

system: Chordin-like protein 2 (CHRDL2); experiment: compounds binding chordin-like 2 – biochemical, small-molecule microarray, 635 nm fluorescence, primary screen (AID 1126); details: fluorescence 635 nm, higher = more signal;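 note: printed compound slides probed with Chrdl2 protein at 4 µg/mL for 1 h at 4 C; score merges 667 nm emission intensity with signal to noise over three replicate slides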
READOUT_TYPE: composite z-score
Lab note: jot down the number only; don't add units.

[[record]]
molecule = "CCOC(=O)C1=CC[C@@H](c2ccccc2)N(S(=O)(=O)c2ccc(C)cc2)[C@H]1C=C(C)C"
tested_target = "Chordin-like protein 2 (CHRDL2)"
readout_value = 0.542


So the reported composite z-score for N#Cc1ccc(NN2C(C(O)c3ccco3)C=CC3C(=O)N(c4ccccc4)C(=O)C32)cc1 (stereo unspecified) , on Chordin-like protein 2 (CHRDL2), turned out to be 0.111

Entry `Cc1ccc(S[C@]2(C(=O)NCCN3CCOCC3)CC(=O)N(C3Cc4ccccc4C3)[C@@H]2c2ccc(CO)cc2)cc1` ; assay system Chordin-like protein 2 (CHRDL2); composite z-score recorded at -0.373

`COc1ccc([Si](C)(C)[C@@H]2[C@@H](CCO)O[C@]3(C(=O)N(Cc4ccc(N5C(=O)c6ccccc6Oc6ccccc65)cc4)c4ccccc43)[C@H]2C)cc1` tested on Chordin-like protein 2 (CHRDL2) gave composite z-score: -0.968

Record `CC(C)CNC(=O)[C@@]1(c2ccc([N+](=O)[O-])cc2)CC(=O)N(C(C)C)[C@@H]1c1ccc(CO)cc1` ; system Chordin-like protein 2 (CHRDL2); composite z-score = -2.39

Sample `C[N+](C)(C)CCCCCCNC(=O)[C@@H]1C[C@@H]2C(=O)NCC(=O)N2[C@@H]1c1ccc(O)cc1` , system: Chordin-like protein 2 (CHRDL2). Its composite z-score is 1.3
